All values here come from the OligoGym collection.

settings: siRNA; also: test system not given here
HELM strings list units from the 5' end as sugar, base in round brackets, then linkage (d deoxyribose, r ribose, m 2'-O-methyl, p phosphodiester). Strings are as the collection lists them, not checked against the first reports. ss, as = sense and antisense strand; [fl2r] = 2'-fluoro
Listing of entries alongside the reported target mRNA knockdown.
Write down the numeric answer in % and omit the unit.

Answered cases to consult:
Substance	Readout units	Result value
RNA1{r(C)p.r(U)p.r(C)p.r(U)p.r(C)p.r(C)p.[fl2r](U)p.r(A)p.r(C)p.r(C)p.r(U)p.[fl2r](U)p.r(C)p.r(U)p.r(C)p.r(C)p.[fl2r](U)p.r(C)p.r(U)p.r(T)p.r(T)}|RNA2{r(A)p.r(G)p.r(A)p.r(G)p.r(G)p.r(A)p.r(G)p.r(A)p.r(A)p.r(G)p.r(G)p.[fl2r](U)p.r(A)p.r(G)p.r(G)p.r(A)p.r(G)p.r(A)p.r(G)p.r(T)p.r(T)}$$$RNA1{StrandType:ss}|RNA2{StrandType:as}$	%	73
RNA1{m(C)p.m(G)p.m(U)p.m(A)p.m(C)p.m(G)p.r(C)p.r(G)p.r(G)p.r(A)p.r(A)p.r(U)p.r(A)p.r(C)p.r(U)p.r(U)p.r(C)p.r(G)p.r(A)p.r(T)p.r(T)}|RNA2{r(U)p.r(C)p.r(G)p.r(A)p.r(A)p.r(G)p.r(U)p.r(A)p.r(U)p.r(U)p.r(C)p.r(C)p.r(G)p.r(C)p.r(G)p.r(U)p.r(A)p.r(C)p.r(G)p.r(T)p.r(T)}$$$RNA1{StrandType:ss}|RNA2{StrandType:as}$	%	94.8

Attention now shifts to the item below.
Input line: Field request: target mRNA knockdown | item: RNA1{r(A)p.r(A)p.r(G)p.r(G)p.r(A)p.r(C)p.r(C)p.[fl2r](U)p.r(A)p.r(G)p.r(A)p.r(G)p.r(G)p.r(A)p.r(G)p.r(U)p.[fl2r](C)p.r(A)p.r(C)p.r(T)p.r(T)}|RNA2{r(G)p.[fl2r](U)p.r(G)p.r(A)p.r(C)p.r(U)p.r(C)p.r(C)p.r(U)p.r(C)p.[fl2r](U)p.r(A)p.r(G)p.r(G)p.r(U)p.r(C)p.r(C)p.r(U)p.r(U)p.r(T)p.r(T)}$$$RNA1{StrandType:ss}|RNA2{StrandType:as}$
Output line: 87
